Sourced from patent US20240385190A1

tested.on: FN1
assay.comment: ELISA
readout.name: absorbance
Please state the value as a number alone, without comment.

Fill in: absorbance of KPEP11_12 (antibody, V domains shown, Rabbit IgG; also called anti-human EphA4 rabbit monoclonal antibody KPEP11_12) VH: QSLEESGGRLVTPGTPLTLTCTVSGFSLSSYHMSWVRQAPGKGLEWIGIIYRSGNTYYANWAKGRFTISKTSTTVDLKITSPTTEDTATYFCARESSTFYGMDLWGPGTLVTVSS VL: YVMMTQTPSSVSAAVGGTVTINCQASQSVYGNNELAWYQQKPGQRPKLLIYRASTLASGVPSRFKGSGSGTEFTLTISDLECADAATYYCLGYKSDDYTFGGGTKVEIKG is ___
0.255

Now consider a different binder.
Fill in: absorbance of KPEP11_05 (antibody, V domains shown, Rabbit IgG; also called anti-human EphA4 rabbit monoclonal antibody KPEP11_05) VH: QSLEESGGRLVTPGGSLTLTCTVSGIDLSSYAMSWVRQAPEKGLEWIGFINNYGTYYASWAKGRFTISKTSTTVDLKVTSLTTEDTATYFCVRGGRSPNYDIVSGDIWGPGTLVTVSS VL: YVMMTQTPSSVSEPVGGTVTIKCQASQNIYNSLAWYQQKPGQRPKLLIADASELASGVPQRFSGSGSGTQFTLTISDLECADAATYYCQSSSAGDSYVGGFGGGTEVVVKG is ___
0.213
